System: RARb homodimer (NR concentration 270 nM)
Assay: PBM binding z-score (relative to random genomic background probes); higher = stronger binding; sequences stand for … in GC…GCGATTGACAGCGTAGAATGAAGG
experimental-endpoint: PBM binding z-score

{"columns": ["seq-string", "experimental-endpoint", "val"],
 "data": [
  ["CCTACTTGGCCACGAAAGGTCATTGATTCAGTGA", "PBM binding z-score", 4.61],
  ["AGGATGAGGTTAAGATCAGGGAAACAGAATACAT", "PBM binding z-score", 1.48],
  ["TCAGCTAGGTCAGTTGGTCAGCTAACGAGCTGCC", "PBM binding z-score", 2.61],
  ["AGTCAAAGTTCATCTAGGTAATGTAAGATATGCT", "PBM binding z-score", 3.87],
  ["CAAACTAGGTCACAGAGGTCAATGTCCGTGCGTA", "PBM binding z-score", 5.68],
  ["CGTACTAGGTCAGAACAGGACAGTGAAGGATGAT", "PBM binding z-score", 2.2],
  ["TCGAGTAGGTTACCAATAGGGCATTCAGCTTTCT", "PBM binding z-score", 0.965],
  ["CCTACTGGGCCATTCAGAGGTAATTGATCATATG", "PBM binding z-score", -0.0878],
  ["CCAGACAGGTGAAAGGTAAGTCAGTCTGGTACGC", "PBM binding z-score", 0.843],
  ["AGAACGAGTGCACGCTGAGTTGATAGCAGAGTAG", "PBM binding z-score", -0.576],
  ["GCTTGTAGATCCAGGTTAAGAAAGACTAAGCTAA", "PBM binding z-score", -0.153],
  ["ACTAGCAAGCCAAGGGTCACTCAAGATTAGTCCG", "PBM binding z-score", 3.62],
  ["CCTAGGAGGACAACAGGAGGTCAGAGCTGCCAGA", "PBM binding z-score", 3.64],
  ["TCACCAAGGTGAAAGGTCGTTGATGCACGCCTTG", "PBM binding z-score", 2.63],
  ["TCATATAGGTAAAGGTGAACGTCGAACGATATGA", "PBM binding z-score", 1.73],
  ["GCTTGTAGATCAAAGTTAAGAAAGACTAAGCTAA", "PBM binding z-score", -0.8],
  ["TAGCCTATGTCATGCGGGCCAGTATAGTGTCGGC", "PBM binding z-score", -0.116],
  ["TCATATGGGTAAAAGGTGAAAGTCGGTGTGGTAA", "PBM binding z-score", 1.98],
  ["TCTATTAGTTGACGGGCAACCGACGAGTCCGTTT", "PBM binding z-score", -0.1],
  ["CCTAGTTTGTCAAGGTCACACACGCTATAGGTAC", "PBM binding z-score", 4.5],
  ["GCTAGTTGGTCAGTAAAAGGTCACACGCCGGTCG", "PBM binding z-score", 5.37],
  ["ACAGACAGGTGAATGAAGGTAACTCAGCTGGACG", "PBM binding z-score", 0.0507],
  ["TCTTGTAGAGCAAAGGTTAAGAAAGCCGAAGCCT", "PBM binding z-score", 1.17],
  ["ACTACTTGGTCAGCTGAGGTCACACACAATTCGG", "PBM binding z-score", 4.44],
  ["AGAATGAGGTTTCCAAAGATCAGGGAAACGCTTG", "PBM binding z-score", -0.579],
  ["ACTCGGAGGACAAAGGTCAGAGATACGCCAGTGA", "PBM binding z-score", 4.52],
  ["ATCGAAAGGTCGGAGGTGAGTATACCCACCCGAA", "PBM binding z-score", 2.03],
  ["AATACAGGGCCACTAGGCCAGAGTAGGTACGAAT", "PBM binding z-score", 0.294],
  ["TAGCCTAGGTCATTCAGGGGCCAGTAGAGAAAGC", "PBM binding z-score", 3.21],
  ["CAAACTAGGTCACAGAGGTCCAAGTCCGTGCGTA", "PBM binding z-score", 3.68],
  ["ATCTCTAGGTAATGATAGTTCAGTGAATGCAAAT", "PBM binding z-score", 0.921],
  ["TCTTGTAGATCAACAGCAGGTTAAGAAAGATCGA", "PBM binding z-score", 0.0548],
  ["ATCGAAAGGTCGTGAGGAGAGTATACAGAAAGGC", "PBM binding z-score", 2.56],
  ["CGTCCAAGGTCAGAGAGGACAGTGAATGCCGAGT", "PBM binding z-score", 4.12],
  ["TCGAGTAGGTTAGGGGCAGTCAGAATGGCGTCGA", "PBM binding z-score", 1.27],
  ["CCCACTGGGGCATAAGGTTACCATAAGCCAGCCC", "PBM binding z-score", 1.49],
  ["CCTTACGAGTCAAGGTTATAGCACGGGTGGTACG", "PBM binding z-score", 1.07],
  ["CTACCAAGGTGAACAAGTTCGTTGATTACTATTC", "PBM binding z-score", 1.3],
  ["GCTAGTTGGTCAGTAAAAGGTCACACAGCGGTCG", "PBM binding z-score", 4.98],
  ["ACCTCTAGGTAAGACTCAGTTCAGTGAAGAACGC", "PBM binding z-score", 0.0203],
  ["ATCGAAAGGTCGAAGGTGAGTGTACCCACCCGAA", "PBM binding z-score", 2.58],
  ["TAGCGTAGGTCATGGGCCAGTATACCACGCGAAC", "PBM binding z-score", 2.74],
  ["CCTAGCAGGCCAATCTGGGTCACACAAGGCTTGA", "PBM binding z-score", 2.53],
  ["TTACCAAGGTGAGCTGAGGTCGTTGACCCAACTC", "PBM binding z-score", 2],
  ["TCTATTAGTTAATTAGGGCAACCGAAACAGCGGA", "PBM binding z-score", 0.756],
  ["AGAATGAGGTTATACGTATATCAGGGAAGAAAGT", "PBM binding z-score", 0.94],
  ["TTGAGTAGGTTAGTCGGGGCATTCAGCCAACATA", "PBM binding z-score", 0.969],
  ["CCTAGTTGGTCAAGGTCACACGCGCTATAGGTAC", "PBM binding z-score", 4.39],
  ["AGTCAAAGTTGACTAGGTAACGTAAGATTCAGCT", "PBM binding z-score", 0.0886],
  ["GCGACTGGGGCAACGCAGGTTACCATAAGGTTGG", "PBM binding z-score", 1.32],
  ["ACTGGCAGGCCAAGTTTGGGTCACTCAAACAAAG", "PBM binding z-score", 2.35]
]}
